Where these numbers come from: paper PMC10424186

Could you please report measured pIC50 for the items listed next?
- TEST_TARGET: human JMJD5 (Homo sapiens, UniProt Q8N371)
- Sequence (Q8N371 whole entry): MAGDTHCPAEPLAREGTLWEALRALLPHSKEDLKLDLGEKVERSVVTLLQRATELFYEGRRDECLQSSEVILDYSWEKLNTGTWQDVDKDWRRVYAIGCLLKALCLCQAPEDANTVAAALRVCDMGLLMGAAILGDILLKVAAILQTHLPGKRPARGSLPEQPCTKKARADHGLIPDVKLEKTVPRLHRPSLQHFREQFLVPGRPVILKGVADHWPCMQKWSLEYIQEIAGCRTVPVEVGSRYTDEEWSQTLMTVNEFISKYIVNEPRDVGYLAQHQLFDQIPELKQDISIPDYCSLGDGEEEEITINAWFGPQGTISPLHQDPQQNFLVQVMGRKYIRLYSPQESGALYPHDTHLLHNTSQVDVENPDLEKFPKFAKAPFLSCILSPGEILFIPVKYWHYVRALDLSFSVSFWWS
- EXPERIMENTAL_DETAILS: SPE-MS JMJD5 inhibition assay (hydroxylation of RPS6 128–148 peptide)
- Assay type: biochemical
- RECORDED_CONDITIONS: isolated recombinant JMJD5, SPE-MS; approximate values; read-out: IC50 for JMJD5 inhibition
pIC50: −log10 of the molar value.

Query: Fill in pIC50 for record CC(Nc1cnc(C(=O)O)cc1C(=O)O)c1ccccc1 (stereo not shown) [Compound 20e]
Response: ~4.76

Query: Fill in pIC50 for record O=C(O)c1cc(C(=O)O)c(F)cn1 [Compound 15, 5-fluoro-2,4-PDCA]
Response: ~5.35

Query: Fill in pIC50 for record CCC(Nc1c(C(=O)O)ccnc1C(=O)O)c1ccccc1 (stereo not shown) [Compound 9]
Response: ~5.12

Query: Fill in pIC50 for record O=C(O)c1ccnc(C(=O)O)c1NCC1CCCCC1 [Compound 5]
Response: ~4.60

Query: Fill in pIC50 for record O=C(O)c1ccnc(C(=O)O)c1C(F)(F)F [Compound 14, 3-trifluoromethyl-2,4-PDCA]
Response: < 4.30

Query: Fill in pIC50 for record CC(Nc1c(C(=O)O)ccnc1C(=O)O)c1ccccc1 (stereo not shown) [Compound 8]
Response: ~5.51

Query: Fill in pIC50 for record O=C(O)c1cc(C(=O)O)c(C(F)(F)F)cn1 [Compound 16, 5-trifluoromethyl-2,4-PDCA]
Response: < 4.30

* * *

- TEST_TARGET: UniProt Q8N371
- EXPERIMENTAL_DETAILS: SPE-MS JMJD5 inhibition assay (hydroxylation of RPS6 128–148 peptide)
- Assay type: biochemical
- RECORDED_CONDITIONS: Table 1; JMJD5 […], 2OG 2.0 μM, Fe(II) 2.0 μM, LAA 100 μM, RPS6 128–148 2.0 μM, pH 7.5, 20 °C; n = 3, mean ± SD; read-out: IC50 JMJD5
pIC50: −log10 of the molar value.
satisfied means recorded pIC50 is 5 or above; not satisfied means it is below 5.

Query: Is reported pIC50 greater than or equal to 5 here: O=C(O)c1ccnc(C(=O)O)c1NCCCCc1ccccc1 [Compound 12]
Response: not satisfied

Query: Is reported pIC50 greater than or equal to 5 here: O=C(O)c1ccnc(C(=O)O)c1F [Compound 13, 3-fluoro-2,4-PDCA]
Response: not satisfied

Query: Is reported pIC50 greater than or equal to 5 here: CC(Nc1c(C(=O)O)ccnc1C(=O)O)c1ccccc1 (stereo not drawn) [Compound 8]
Response: satisfied

Query: Is reported pIC50 greater than or equal to 5 here: COc1ccc(CNc2c(C(=O)O)ccnc2C(=O)O)cc1 [Compound 6]
Response: satisfied

Query: Is reported pIC50 greater than or equal to 5 here: O=C(O)c1ccncc1NCc1ccccc1 [Compound 4]
Response: not satisfied

Query: Is reported pIC50 greater than or equal to 5 here: O=C(O)c1ccnc(C(=O)O)c1Nc1ccccc1[N+](=O)[O-] [Compound 2]
Response: not satisfied

Query: Is reported pIC50 greater than or equal to 5 here: O=C(O)c1ccnc(C(=O)O)c1NCCc1ccccc1 [Compound 10]
Response: not satisfied

Query: Is reported pIC50 greater than or equal to 5 here: O=C(O)c1ccnc(C(=O)O)c1C(F)(F)F [Compound 14, 3-trifluoromethyl-2,4-PDCA]
Response: not satisfied
